# Test system: BS1725 B. subtilis ermC
# Test details: broth dilution MIC, B. subtilis BS1725
# Type: cell-based
# Condition notes: Bacillus subtilis, BS1725 B. subtilis ermC (−ery)
Measured endpoint: MIC

// below: answered molecules
CC[C@H]1OC(=O)[C@H](C)C(=O)C[C@@H](O[C@@H]2OC(C)CC(N(C)C)C2O)[C@@](C)(OC)C[C@@H](C)CN(C(C)=O)[C@H](C)[C@H]2N(CCCCn3cc(-c4cccnn4)nn3)C(=O)O[C@]12C (stereo partly drawn) [FSM-30513]    > 32 µg/mL
CCC[C@@H]1C[C@@H](C(=O)N[C@@H]([C@H]2O[C@H](SC)[C@H](O)[C@@H](O)[C@H]2O)[C@H](C)Cl)N(C)C1 [Clindamycin, clindamycin, reference compound]    2 µg/mL

Consider the additional molecule presented here.
Per the record, CC[C@H]1OC(=O)[C@](C)(F)C(=O)C[C@@H](O[C@@H]2OC(C)CC(N(C)C)C2O)[C@](C)(OC)C[C@@H](C)CN[C@H](C)[C@H]2N(CCCCn3cc(-c4nccs4)nn3)C(=O)O[C@]12C (stereo partly drawn) [FSM-10666] has MIC of > 32 µg/mL

---

# Tested on: H. influenzae strains
# Test details: MIC against H. influenzae strains (Table M8)
# Assay type: cell-based
# Condition notes: Haemophilus influenzae, H. influenzae 49247; read-out: MIC H. influenzae (49247)
# Excerpt: We have collected MIC data for a total of 50 novel macrolides that this platform has produced against over 21 unique strains of B. subtilis, E. coli, S. aureus, S. pneumoniae, and H. influenzae, including several multidrug-resistant strains, with a special focus on macrolide resistant mechanisms (vide supra). Azithromycin was included as a control macrolide. CLSI standard procedures for broth dilution MIC determination were used. […] These genotypes can be constitutive or inducible. […]
Each entry below carries its reported MIC.
Quick note: give the figure in µg/mL, leave out the unit.

// below: answered molecules
CC[C@H]1OC(=O)CC(=O)[C@H](C)[C@@H](O[C@@H]2OC(C)CC(N(C)C)C2O)[C@](C)(OC)C[C@@H](C)CN[C@H](C)[C@H]2N(CCCCn3cc(-c4cccc(N)c4)nn3)C(=O)O[C@]12C (stereo partly drawn) [FSM-56133]    1
CC[C@H]1OC(=O)[C@H](C)C(O)[C@H](C)[C@@H](O[C@@H]2OC(C)CC(N(C)C)C2O)[C@](C)(OC)C[C@@H](C)CN[C@H](C)[C@H]2N(CCCCn3cc(-c4cccc(N)c4)nn3)C(=O)O[C@]12C (stereo partly drawn) [FSM-21340]    1

Consider the additional molecule presented here.
Per the record, CC[C@H]1OC(=O)[C@H](C)C(=O)[C@H](C)[C@@H](O[C@@H]2OC(C)CC(N(C)C)C2O)[C@](C)(OC/C=C/c2cnc3ccccc3c2)C[C@@H](C)CN[C@H](C)[C@H]2NC(=O)O[C@@]21C (stereo partly drawn) [FSM-20919] has MIC of 1

---

# Tested on: Spn160 S. pneumoniae ermB unknown mefA positive
# Test details: broth dilution MIC, S. pneumoniae Spn160
# Type: cell-based
# Condition notes: Streptococcus pneumoniae; Spn160 S. pneumoniae ermB unknown mefA positive; read-out: MIC
Measured endpoint: MIC

// below: answered compounds
CC[C@H]1OC(=O)C(C)(F)C(=O)[C@@H](C)[C@@H](O[C@@H]2OC(C)CC(N(C)C)C2O)[C@](C)(OC)C[C@@H](C)CN(C)[C@H](C)[C@H]2N(CCCCn3cc(-c4nccs4)nn3)C(=O)O[C@]12C (stereo partly shown)    0.5 to 1 µg/mL
CC[C@H]1OC(=O)[C@H](C)C(=O)[C@H](C)[C@@H](O[C@@H]2OC(C)CC(N(C)C)C2O)[C@](C)(OC)C[C@@H](C)C(=O)N[C@H](C)[C@H]2N(CCCCn3cc(-c4ccccn4)nn3)C(=O)O[C@]12C (stereo partly shown)    > 32 µg/mL
CC[C@H]1OC(=O)C(C)(F)C(=O)[C@@H](C)[C@@H](O[C@@H]2OC(C)CC(N(C)C)C2O)[C@](C)(OC)C[C@@H](C)CN[C@H](C)[C@H]2N(CCCCn3cc(-c4cccc(N)n4)nn3)C(=O)O[C@]12C (stereo partly shown)    0.25 to 1 µg/mL

Per the record, CCC[C@@H]1C[C@@H](C(=O)N[C@@H]([C@H]2O[C@H](SC)[C@H](O)[C@@H](O)[C@H]2O)[C@H](C)Cl)N(C)C1 [Clindamycin, clindamycin, reference compound] has MIC of 0.0156 to 0.0312 µg/mL

Per the record, CC[C@H]1OC(=O)C(C)(F)C(=O)[C@@H](C)[C@@H](O[C@@H]2OC(C)CC(N(C)C)C2O)[C@](C)(OC)C[C@@H](C)CN[C@H](C)[C@H]2N(CCCCn3cc(-c4nccs4)nn3)C(=O)O[C@]12C (stereo partly shown) has MIC of 0.5 to 1 µg/mL

Per the record, CC[C@H]1OC(=O)[C@H](C)C(=O)C[C@@H](O[C@@H]2OC(C)CC(N(C)C)C2O)[C@](C)(OC)C[C@@H](C)C(=O)N[C@H](C)[C@H]2N(CCCCn3cc(-c4ccccn4)nn3)C(=O)O[C@]12C (stereo partly shown) has MIC of > 32 µg/mL

Per the record, CC[C@H]1OC(=O)[C@H](C)C(=O)[C@H](C)[C@@H](O[C@@H]2OC(C)CC(N(C)C)C2O)[C@](C)(OC)C[C@@H](C)CN[C@H](C)[C@H]2N(CCCCn3cc(-c4cccc(N)n4)nn3)C(=O)O[C@]12C (stereo partly shown) has MIC of 0.125 to 0.25 µg/mL

Each recorded value in this set is attributed to patent US9982005B2.
